%Inh values for the compounds below.
Test system: PIK3CB
run parameters: concentration: 1 μM, replicates: in singlicate; n = 1;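 note: KINOMEscan kinase panel screen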
Numbers only; they are read as %.

Solved entries (count: 2):
- smiles structure: "COc1nccc(-c2c(-c3ccc(F)cc3)ncn2CCCN2CCOCC2)n1"
  target desc: "PIK3CB"
  %Inh, %: 0
- smiles structure: "Cc1ccccc1-c1cc(-c2c[nH]nc2-c2ccccn2)ccn1"
  target desc: "PIK3CB"
  %Inh, %: 0

Asked: Param item = CC(C)c1ccc(O)cc1Nc1ccnc2ccc(C(F)(F)F)cc12 ; retrieve measured %Inh.
Given back: 0

====

%Inh values for the compounds below.
Test system: PIK3C2G
run parameters: concentration: 1 μM, replicates: in singlicate; n = 1
Numbers only; they are read as %.

Solved entries (count: 4):
- compound: "Cn1cnc2c(N)ncnc21"
  units symbol: "%"
  %Inh: 0
- compound: "Cc1ccc(NC(=O)c2ccc(Cl)cc2)cc1-c1ccc(C(=O)Nc2ccncc2)cc1"
  units symbol: "%"
  %Inh: 0
- compound: "Cc1ccc(NC(=O)Nc2ccccc2)cc1-c1ccc(C(=O)Nc2ccncc2)cc1"
  units symbol: "%"
  %Inh: 0
- compound: "CC(=O)c1c(C)c2cnc(Nc3ccn(C)n3)nc2n(C2CCCC2)c1=O"
  units symbol: "%"
  %Inh: 0

Asked: Param item = O=C1NC(=O)C(c2ccc(Cl)cc2)=C1Nc1ccc(O)cc1 ; retrieve measured %Inh.
Given back: 0

Asked: Again, but for O=C(Nc1n[nH]c2nc(-c3ccco3)c(Br)cc12)C1CCN(Cc2ccccc2)C1.O=C(O)[C@H](O)[C@@H](O)C(=O)O (centres unmarked)
Given back: 13

Asked: Again, but for O=c1cc(N2CCOCC2)nc2n(Cc3ccccc3F)ccn12
Given back: 0

Asked: Again, but for CS(=O)(=O)Cc1ccc(Nc2nccc(-c3c(-c4cccc(NC(=O)C5CCCCC5)c4)nn4ncccc34)n2)cc1
Given back: 27

====

Tested on: CAMK4
run parameters: concentration: 1 μM, replicates: in singlicate; n = 1
property measured: %Inh (%)
Numbers only; they are read as %.

Solved entries (count: 4):
- molecule: "Cc1ccc(NC(=O)Nc2ccccc2F)cc1-c1ccc(C(=O)Nc2ccncc2)cc1 [GSK1398477]"
  units symbol: "%"
  %Inh: 5
- molecule: "CNc1nc(-c2ccc3c(N)n[nH]c3c2)cc(N2C[C@@H](C(=O)NC3CCCCC3)OC[C@H]2C)n1 [GSK2375584]"
  units symbol: "%"
  %Inh: 0
- molecule: "Fc1ccc(-c2nc3n(c2-c2ccncc2)CCS3)cc1 [GI98581]"
  units symbol: "%"
  %Inh: 0
- molecule: "Cc1ccccc1-c1cc(-c2c[nH]nc2-c2ccccn2)ccn1 [GW680061]"
  units symbol: "%"
  %Inh: 0

Asked: Param item = Cc1cnc(N)c(/C=C/c2cncc(C(=O)NCCc3ccc(Cl)cc3Cl)c2)c1.Cl [GSK190937] ; retrieve measured %Inh.
Given back: 0

Asked: Again, but for CCn1c(-c2c(N)noc2C)nc2cnccc21 [SB-737856]
Given back: 0

Asked: Again, but for c1ccc(-c2ccnc3[nH]ccc23)cc1 [SB-693578]
Given back: 0

====

Tested on: KIT
run parameters: concentration: 1 μM, replicates: in singlicate; n = 1
property measured: %Inh (%)
Numbers only; they are read as %.

Solved entries (count: 3):
- molecule: "COc1cc2ncnc(Nc3cccc(Br)c3)c2cc1OC.Cl"
  %Inh, %: 10
- molecule: "Cc1c(Cn2c(C)c(C)n3c(=O)cc(N4CCOCC4)nc23)cccc1C(F)(F)F"
  %Inh, %: 9
- molecule: "COC(=O)C(Cc1ccccc1)NC(=O)NC1CCN(c2ccnc(Nc3ccc(F)cc3)n2)C1 (stereo not shown)"
  %Inh, %: 11

Asked: Param item = O=C(Nc1n[nH]c2nc(-c3cccs3)c(Br)cc12)C1CC1 ; retrieve measured %Inh.
Given back: 5

Asked: Again, but for Cc1ccc(NC(=O)Nc2ccccc2F)cc1-c1ccc(C(=O)Nc2ccncc2)cc1
Given back: 99.6

Asked: Again, but for Nc1nccc(-c2c(-c3ccc(F)cc3)ncn2C2CCN(Cc3ccccc3)CC2)n1
Given back: 0

Asked: Again, but for Cc1cccc2c(-c3ccncn3)c(-c3ccc(F)cc3)nn12
Given back: 6

Asked: Again, but for COc1ccc(Nc2nccc(N3CCC(NC(=O)C(C)c4ccc(Cl)cc4)C3)n2)cc1 (stereo not shown)
Given back: 31

====

Test system: KIT
run parameters: concentration: 1 μM, replicates: in singlicate; n = 1
%Inh values for the molecules below.
Could you give the number and then its unit, please?

Solved entries (count: 2):
- molecule: "Cc1ccc(NC(=O)Nc2ccccc2)cc1-c1ccc(C(=O)Nc2ccncc2)cc1"
  observed measurement: "99.7%"
- molecule: "CC(=O)c1c(C)c2cnc(Nc3ccn(C)n3)nc2n(C2CCCC2)c1=O"
  observed measurement: "0%"

Now examine the next entry.
Asked: Param item = COc1ccc(Nc2nccc(N3CCC(NC(=O)C(C)c4ccc(Cl)cc4)CC3)n2)cc1 (stereo not drawn) ; retrieve measured %Inh.
Given back: 15%

====

System: RSK3(Kin.Dom.2-C-terminal)
Construct: gene RPS6KA2
run parameters: concentration: 1 μM, replicates: in singlicate; n = 1
%Inh values for the molecules below.
Numbers only; they are read as %.

Solved entries (count: 8):
- molecule: "CC(=O)c1c(C)c2cnc(Nc3ccc(N4CCNCC4)cn3)nc2n(C2CCCC2)c1=O"
  target desc: "RSK3(Kin.Dom.2-C-terminal)"
  units symbol: "%"
  %Inh: 0
- molecule: "O=C(Nc1n[nH]c2nc(-c3cccs3)c(Br)cc12)C1CC1"
  target desc: "RSK3(Kin.Dom.2-C-terminal)"
  units symbol: "%"
  %Inh: 0
- molecule: "CC(C)c1cc(-c2ccc3c(N)n[nH]c3c2)nc(N)n1"
  target desc: "RSK3(Kin.Dom.2-C-terminal)"
  units symbol: "%"
  %Inh: 5
- molecule: "COc1cc2ncnc(Nc3cccc(Br)c3)c2cc1OC.Cl"
  target desc: "RSK3(Kin.Dom.2-C-terminal)"
  units symbol: "%"
  %Inh: 0
- molecule: "CCCCc1nn2ncccc2c1-c1ccnc(NC2CC2)n1"
  target desc: "RSK3(Kin.Dom.2-C-terminal)"
  units symbol: "%"
  %Inh: 0
- molecule: "O=C1NC(=O)C(c2ccc(Cl)cc2)=C1Nc1cccc(Cl)c1"
  target desc: "RSK3(Kin.Dom.2-C-terminal)"
  units symbol: "%"
  %Inh: 23
- molecule: "CCn1c(-c2c(N)noc2C)nc2cnccc21"
  target desc: "RSK3(Kin.Dom.2-C-terminal)"
  units symbol: "%"
  %Inh: 0
- molecule: "COc1cccc(CNC(=O)NC2CCN(c3ccnc(Nc4ccc(F)cc4)n3)C2)c1 (stereo not shown)"
  target desc: "RSK3(Kin.Dom.2-C-terminal)"
  units symbol: "%"
  %Inh: 0

Asked: Report %Inh for O=C(Nc1n[nH]c2nc(-c3cccs3)c(Br)cc12)C1CCCC1 tested on RSK3(Kin.Dom.2-C-terminal).
Given back: 0

Asked: Again, but for Cc1ccccc1Cn1ccn2c(=O)cc(N3CCOCC3)nc12
Given back: 0

Asked: Again, but for Cc1ccc(NC(=O)Nc2ccc(Cl)c(C(F)(F)F)c2)cc1-c1ccc(C(=O)Nc2ccncc2)cc1
Given back: 14

Asked: Again, but for NS(=O)(=O)c1cccc(N/C=C2\C(=O)Nc3ccc(S(=O)(=O)Cc4c(Cl)cccc4Cl)cc32)c1
Given back: 0

Asked: Again, but for CSc1ccc(-c2nc3n(c2-c2ccncc2)CCC3)cc1
Given back: 35

====

%Inh values for the compounds below.
Tested on: MAP3K4
run parameters: concentration: 1 μM, replicates: in singlicate; n = 1
Could you give the number and then its unit, please?

- compound: "CCn1c(-c2c(N)noc2C)nc2cnccc21"
  target desc: "MAP3K4"
  %Inh: "19%"
- compound: "COc1nccc(-c2c(-c3ccc(F)cc3)ncn2CCCN2CCOCC2)n1"
  target desc: "MAP3K4"
  %Inh: "7%"
- compound: "CNc1nc(-c2ccc3c(N)n[nH]c3c2)cc(N2C[C@@H](C(=O)NC3CCCCC3)OC[C@H]2C)n1"
  target desc: "MAP3K4"
  %Inh: "0%"
- compound: "CS(=O)(=O)CCNCc1nc(-c2ccc3ncnc(Nc4ccc5c(cnn5Cc5ccccc5)c4)c3c2)cs1.Cl.Cl"
  target desc: "MAP3K4"
  %Inh: "5%"
- compound: "COc1cccc(CNC(=O)NC2CCN(c3ccnc(Nc4ccc(F)cc4)n3)C2)c1 (stereo not shown)"
  target desc: "MAP3K4"
  %Inh: "13%"

Asked: Param item = Cn1cncc1-c1cc2c(Nc3ccc(OCc4ccccc4)cc3)ncnc2cn1 ; retrieve measured %Inh.
Given back: 15%

Asked: Again, but for Fc1ccc(-c2nc3n(c2-c2ccncc2)CCS3)cc1
Given back: 10%
